# Tested on: MALME-3M melanoma
# EXPERIMENTAL DETAILS: NCI tumour cell line growth inhibition, 48 h
Below, each entry is listed alongside its reported TGI.
Response body: numeric value in µM, unit text excluded.

SMILES STR: CN(C)c1ccc(Nc2c3ccccc3nc3cc(NC(=O)CCN4CCCC4)ccc23)cc1
UNIT ABBREVIATION: µM
TGI: 2.41

Let us move to another entry and its TGI.
In plain terms, `COc1ccc(C(=O)/C=C/c2cc(-c3ccc4c(c3)OCO4)n[nH]2)cc1OC` has a documented TGI of 22.8

###

# Test system: K-562 leukemia
# EXPERIMENTAL DETAILS: NCI tumour cell line growth inhibition, 48 h
RESULT TYPE: TGI

Field: example entries. Status: answers known.
MOLECULE: CC1CCOc2ccc(cc2)C=Nc2ccc(cc2)-c2ccc(cc2)N=Cc2ccc(cc2)OCC1 (stereo not drawn)
TARGET: K-562 leukemia
TGI: > 100 µM
--
MOLECULE: C[N+](C)(C)CC(CC(=O)[O-])C1CC1 (stereo not drawn)
TARGET: K-562 leukemia
TGI: > 100 µM
--
MOLECULE: Nc1nc(-c2ccc(Cl)cc2)cc(-c2ccc(Cl)cc2)c1-c1nc2ccccc2o1
TARGET: K-562 leukemia
TGI: 52.3 µM
--
MOLECULE: Oc1ccc(Oc2cnc3cc(Cl)ccc3n2)cc1
TARGET: K-562 leukemia
TGI: > 100 µM
--
MOLECULE: O=C1c2cc3c(cc2CC1Cc1ccc2c(c1)CCC2)CCC3 (stereo not drawn)
TARGET: K-562 leukemia
TGI: > 100 µM
--
MOLECULE: O=C(NNS(=O)(=O)c1ccccc1)c1csc(NC(=S)NC2CCCCC2)n1
TARGET: K-562 leukemia
TGI: > 100 µM
--
MOLECULE: O=c1[nH]c(=O)n(COCc2ccccc2)c2ccccc12
TARGET: K-562 leukemia
TGI: > 100 µM
--
MOLECULE: COc1cc(S(=O)(=O)Nc2ccc(-c3csc(N4C(=O)C(C)SC4c4ccccc4)n3)cc2)ccc1Cl (stereo not drawn)
TARGET: K-562 leukemia
TGI: > 100 µM
--
MOLECULE: N#Cc1ccc2[nH]c3c(c2c1)CC(=O)Nc1ccccc1-3
TARGET: K-562 leukemia
TGI: > 100 µM
--
MOLECULE: CCCC(C)c1c(Cl)nc(Cl)nc1Cl (stereo not drawn)
TARGET: K-562 leukemia
TGI: > 100 µM

In plain terms, `NC(=O)c1sc(-n2cnc3ccc(C(F)(F)F)cc32)cc1OCc1ccccc1Br` has a documented TGI of > 25 µM

In plain terms, `O=C(Nc1ccc(Sc2ccc(N=Nc3c(O)c(S(=O)(=O)O)cc4cc(S(=O)(=O)O)ccc34)cc2)cc1)c1ccc(N=Nc2c(O)c(S(=O)(=O)O)cc3cc(S(=O)(=O)O)ccc23)cc1` has a documented TGI of > 100 µM
